Reported CC50 at 24 h values for the following compounds.
assay-protocol: in vitro
recorded-conditions: rat, gh3-tre-luc cells, AC50 (uM) modified / 1000
Counter-ions that a name gives are not always drawn.

NCCNC(=O)c1ccc(Cl)cn1 [Lazabemide hydrochloride]: > 50 µM
O=C(O)COc1ccc(C(=O)c2cccs2)c(Cl)c1Cl: > 50 µM
O=C(O)c1nc(=O)[nH]c(=O)[nH]1 [Potassium oxonate]: > 50 µM
O=C(C[S+]([O-])Cc1ccco1)NC/C=C\COc1cc(CN2CCCCC2)ccn1 (stereo not drawn): > 50 µM
CCCCCCCCN1CCCC1=O: > 90 µM

Ask | Quick one: CC50 at 24 h for "Cc1cc2c(C(C)C)c(O)c(O)c(C=O)c2c(O)c1-c1c(C)cc2c(C(C)C)c(O)c(O)c(C=O)c2c1O" ?
Reply | 8.84 µM

Ask | Quick one: CC50 at 24 h for CCOC(=O)C(C)Oc1ccc(Oc2cnc3cc(Cl)ccc3n2)cc1 (stereo not drawn) ?
Reply | > 90 µM

Ask | Quick one: CC50 at 24 h for NCC1CCCC(CN)C1 (stereo not drawn) ?
Reply | > 90 µM

Ask | Quick one: CC50 at 24 h for "C[C@@H](Oc1ccc(CNC(=O)c2cccnc2Oc2ccc3c(c2)OCO3)c(F)c1)C(=O)O" ?
Reply | > 90 µM
